target: fungal (fACC2) (UniProt Q00955); settings: read-out: fACC2 (in vitro ACC2 Inhibition Assay, IC50); Table 2b, additional results; ADP-Glo, 5 nM ACC2, 20 μM ATP, 20 μM acetyl-CoA
Sequence (Q00955 whole entry): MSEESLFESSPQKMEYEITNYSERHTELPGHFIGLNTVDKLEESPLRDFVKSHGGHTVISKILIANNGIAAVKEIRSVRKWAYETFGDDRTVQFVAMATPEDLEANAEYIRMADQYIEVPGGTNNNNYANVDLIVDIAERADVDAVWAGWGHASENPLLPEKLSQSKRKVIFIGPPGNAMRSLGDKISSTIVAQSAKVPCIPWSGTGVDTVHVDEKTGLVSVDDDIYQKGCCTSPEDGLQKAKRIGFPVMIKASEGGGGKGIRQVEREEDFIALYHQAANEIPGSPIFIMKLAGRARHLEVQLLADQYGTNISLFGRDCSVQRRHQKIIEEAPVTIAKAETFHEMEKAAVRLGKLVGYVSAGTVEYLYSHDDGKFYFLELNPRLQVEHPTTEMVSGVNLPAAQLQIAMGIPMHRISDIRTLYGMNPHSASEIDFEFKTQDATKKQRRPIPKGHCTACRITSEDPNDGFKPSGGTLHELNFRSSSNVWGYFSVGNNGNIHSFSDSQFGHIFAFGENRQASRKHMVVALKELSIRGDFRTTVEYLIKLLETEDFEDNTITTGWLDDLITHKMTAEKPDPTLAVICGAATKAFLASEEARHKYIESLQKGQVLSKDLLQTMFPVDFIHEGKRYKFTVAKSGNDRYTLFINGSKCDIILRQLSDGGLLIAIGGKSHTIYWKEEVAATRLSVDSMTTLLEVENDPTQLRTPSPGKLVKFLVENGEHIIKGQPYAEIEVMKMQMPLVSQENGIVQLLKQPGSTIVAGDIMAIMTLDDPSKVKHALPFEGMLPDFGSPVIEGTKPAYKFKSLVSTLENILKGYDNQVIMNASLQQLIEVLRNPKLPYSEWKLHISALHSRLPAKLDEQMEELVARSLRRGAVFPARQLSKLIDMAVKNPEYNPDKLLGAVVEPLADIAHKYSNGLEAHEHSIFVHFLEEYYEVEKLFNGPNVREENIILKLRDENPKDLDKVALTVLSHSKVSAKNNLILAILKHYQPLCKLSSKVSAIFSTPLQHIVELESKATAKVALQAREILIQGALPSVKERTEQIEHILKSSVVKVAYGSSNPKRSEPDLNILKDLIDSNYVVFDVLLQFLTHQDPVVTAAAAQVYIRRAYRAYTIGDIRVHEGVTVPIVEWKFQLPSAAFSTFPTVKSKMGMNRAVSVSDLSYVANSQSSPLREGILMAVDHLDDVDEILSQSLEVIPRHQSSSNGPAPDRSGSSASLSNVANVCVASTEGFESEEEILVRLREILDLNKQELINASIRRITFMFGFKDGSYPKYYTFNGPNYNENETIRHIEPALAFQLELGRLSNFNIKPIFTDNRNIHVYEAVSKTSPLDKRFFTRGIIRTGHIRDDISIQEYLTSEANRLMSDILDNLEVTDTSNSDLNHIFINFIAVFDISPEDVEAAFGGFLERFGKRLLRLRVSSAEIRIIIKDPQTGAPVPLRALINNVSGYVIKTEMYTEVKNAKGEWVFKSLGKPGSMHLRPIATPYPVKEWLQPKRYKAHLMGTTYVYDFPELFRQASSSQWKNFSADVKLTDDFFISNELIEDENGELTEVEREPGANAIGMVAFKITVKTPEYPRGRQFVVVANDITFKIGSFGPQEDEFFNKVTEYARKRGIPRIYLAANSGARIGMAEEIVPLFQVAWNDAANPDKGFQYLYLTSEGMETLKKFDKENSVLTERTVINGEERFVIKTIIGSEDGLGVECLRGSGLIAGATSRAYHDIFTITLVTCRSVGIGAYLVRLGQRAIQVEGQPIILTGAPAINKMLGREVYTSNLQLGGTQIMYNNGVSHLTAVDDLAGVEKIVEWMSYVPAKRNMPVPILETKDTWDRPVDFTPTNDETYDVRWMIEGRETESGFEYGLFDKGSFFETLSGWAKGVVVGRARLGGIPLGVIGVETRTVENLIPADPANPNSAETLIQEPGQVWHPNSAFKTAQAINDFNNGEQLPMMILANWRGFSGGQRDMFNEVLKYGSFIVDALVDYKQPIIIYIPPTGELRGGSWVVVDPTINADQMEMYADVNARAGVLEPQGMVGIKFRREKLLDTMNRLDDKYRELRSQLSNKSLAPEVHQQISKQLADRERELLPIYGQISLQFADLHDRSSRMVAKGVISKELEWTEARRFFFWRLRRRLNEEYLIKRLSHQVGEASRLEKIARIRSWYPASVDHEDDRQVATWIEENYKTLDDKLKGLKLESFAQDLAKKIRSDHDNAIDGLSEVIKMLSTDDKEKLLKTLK
pIC50: −log10 of the molar value.
attribute measured: pIC50

In: Quick one: pIC50 for COc1ccc(F)cc1[C@H](Cn1c(=O)n(C(C)(C)C(=O)O)c(=O)c2c(C)c(-n3nccn3)sc21)OCCN1CC(C#N)C1 ?
Out: 8.30 to 9.00

---
In: Quick one: pIC50 for CNC(=O)C(C)(C)n1c(=O)c2c(C)c(-n3nccn3)sc2n(C[C@H](OC(C)C)c2cc(F)ccc2OC)c1=O ?
Out: 8.30 to 9.00

In: Quick one: pIC50 for CCOC(=O)[C@H]1CC[C@@H](O[C@@H](Cn2c(=O)n(C(C)(C)C(=O)NC(C)C)c(=O)c3c(C)c(-n4nccn4)sc32)c2cc(F)ccc2OC)CC1 ?
Out: 8.30 to 9.00

In: Quick one: pIC50 for COc1ccc(F)cc1[C@H](Cn1c(=O)n(C(C)(C)C(=O)NC2CC2)c(=O)c2c(C)c(-n3nccn3)sc21)OC(C)C ?
Out: 8.30 to 9.00

In: Quick one: pIC50 for C=CCNC(=O)C(C)(C)n1c(=O)c2c(C)c(-n3nccn3)sc2n(C[C@H](OC(C)C)c2cc(F)ccc2OC)c1=O ?
Out: 8.30 to 9.00

In: Quick one: pIC50 for COc1ccc(F)cc1[C@H](Cn1c(=O)n([C@@H](C)C(=O)N(C)C(C)C)c(=O)c2c(C)c(-n3nccn3)sc21)OCCO ?
Out: 9.00 to 9.52

Taken from patent US10800791B2.
